Molecular target: human GLP-1 receptor (human, UniProt P43220 24-463)
Assay: cell-based or functional assay
Positions of bridges follow the written chain, without caps; N, C: chain ends. Non-standard residues stand in square brackets, D forms with d. No end group written: not given here. *: point of attachment. Acetyl(2-(4-imidazolyl)) = O=C(Cc1c[nH]cn1)*; Aib = CC(C)(N)C(=O)O
recorded_metric: In vitro activity (%) compared with native peptide: vs GLP-1
// units = %; emit number, no label

Task item: Can you look up the measured In vitro activity (%) compared with native peptide: vs GLP-1 of H[Aib]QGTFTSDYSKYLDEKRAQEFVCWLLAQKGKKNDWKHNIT (not fully specified) [triple agonist of SEQ ID NO: 28] for me?
Reply: 17.2

Task item: Can you look up the measured In vitro activity (%) compared with native peptide: vs GLP-1 of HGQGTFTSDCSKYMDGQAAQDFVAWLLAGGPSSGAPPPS (ends and bridges not checked) [triple agonist of SEQ ID NO: 45] for me?
Reply: 6.6

Task item: Can you look up the measured In vitro activity (%) compared with native peptide: vs GLP-1 of H[Aib]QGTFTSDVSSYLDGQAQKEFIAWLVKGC (not fully specified) [triple agonist of SEQ ID NO: 2] for me?
Reply: 5.9

Task item: Can you look up the measured In vitro activity (%) compared with native peptide: vs GLP-1 of {Acetyl(2-(4-imidazolyl))}-[Aib]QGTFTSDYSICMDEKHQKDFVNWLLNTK (bridge 15-19; not fully specified) [triple agonist of SEQ ID NO: 59] for me?
Reply: 40.3

Task item: Can you look up the measured In vitro activity (%) compared with native peptide: vs GLP-1 of H[Aib]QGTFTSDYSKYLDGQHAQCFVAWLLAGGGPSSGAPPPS (also: ring from underlined residues, positions not shown) [triple agonist of SEQ ID NO: 39] for me?
Reply: 13.9

Task item: Can you look up the measured In vitro activity (%) compared with native peptide: vs GLP-1 of Y[Aib]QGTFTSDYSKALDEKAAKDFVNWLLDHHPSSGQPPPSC (bridge 16-20; not fully specified) [triple agonist of SEQ ID NO: 99] for me?
Reply: 20.9

Task item: Can you look up the measured In vitro activity (%) compared with native peptide: vs GLP-1 of Y[Aib]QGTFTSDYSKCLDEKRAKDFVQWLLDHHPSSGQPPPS (bridge 16-20; not fully specified) [triple agonist of SEQ ID NO: 70] for me?
Reply: 15.1

Task item: Can you look up the measured In vitro activity (%) compared with native peptide: vs GLP-1 of H[Aib]QGTFTSDKSKYLDECAAQDFVQWLLDGGPSSGAPPPS (not fully specified) [triple agonist of SEQ ID NO: 41] for me?
Reply: 34.3
